Tested on: human colon adenocarcinoma (colon 205 cells)
Assay Comment: Inhibition of multiplication of human colon adenocarcinoma (colon 205 cells), MTT assay
Format: cell-based
Condition Context: 72 hours
Measured Attribute: IC50 (µg/mL)

Guide cases for IC50, answers given:
Per the record, CC(C)CCCC(C)CCCC(C)CCCC(C)CCOCC(CSCCOCC[n+]1ccn(CCCCCC(=O)[O-])c1)Oc1ncccn1 (centres unmarked) [Ex. 38] has IC50 of 2.5

Per the record, CCCCCCCCCCCCCCCCCCOCC(CS(=O)(=O)CCCOCCC[N+](C)(C)C)Oc1ncccn1.[Cl-] (centres unmarked) [Ex. 17] has IC50 of 1.25

Per the record, CCCCCCCCCCCCCCCCCCOCC(CSCCOCC[N+](C)(C)C)Oc1ncccn1.[Cl-] (centres unmarked) [Ex. 23] has IC50 of 0.63

a = CCCCCCCCCCCCCCCCCCOCC(C[S+]([O-])CCOCC[N+](C)(C)C)Oc1ccncn1.[Cl-] (centres unmarked) [Ex. 35]
b = CCCCCCCCCCCCCCCCCCOCC(CSCCOCC[n+]1cccc(CCCCC(=O)[O-])c1)OC (centres unmarked) [Ex. 46]
*Q* Hi there! Just curious which has the higher IC50 between a and b . Kindly state the label of the option you pick.
*A* b
(b: 2.5 µg/mL, a: 0.63 µg/mL)

* * *

// reported Life-span prolongation ratio (T/C %) for each item listed
Tested on: Sarcoma 180 cells
Assay Comment: Antitumor effect against Sarcoma 180 cells in ICR mice
Assay type: in vivo, murine (ICR mice)
Condition Context: 0.33 mg/mouse i.p. 1 hour, 1 day and 2 days after inoculation; only related to mice which died
Expressed in %, but write only the number.

Lab note: compound CCCCCCCCCCCCCCCCCCOCC(C[S+]([O-])CCOCC[n+]1csc(CCO)c1C)Oc1ncccn1.[Cl-] (stereo not shown) [Ex. 6] tested on Sarcoma 180 cells; recorded Life-span prolongation ratio (T/C %) was 213

Lab note: compound CCCCCCCCCCCCCCCCCCOCC(C[S+]([O-])CCOCC[n+]1cccc(CCCO)c1)Oc1ncccn1.[Cl-] (stereo not shown) [Ex. 3] tested on Sarcoma 180 cells; recorded Life-span prolongation ratio (T/C %) was 223

Lab note: compound CCCCCCCCCCCCCCCCCCOCC(C[S+]([O-])CCOCC[n+]1ccsc1)Oc1ncccn1 (stereo not shown) [Ex. 1] tested on Sarcoma 180 cells; recorded Life-span prolongation ratio (T/C %) was 235

Here is the next item to consider.
Lab note: compound CCCCCCCCCCCCCCCCCCOCC(C[S+]([O-])CCOCC[N+](C)(C)C)Oc1ncccn1.[Cl-] (stereo not shown) [Ex. 24] tested on Sarcoma 180 cells; recorded Life-span prolongation ratio (T/C %) was 195
